Target: Histamine H3 receptor (Homo sapiens)
Sequence (Q9Y5N1 whole entry): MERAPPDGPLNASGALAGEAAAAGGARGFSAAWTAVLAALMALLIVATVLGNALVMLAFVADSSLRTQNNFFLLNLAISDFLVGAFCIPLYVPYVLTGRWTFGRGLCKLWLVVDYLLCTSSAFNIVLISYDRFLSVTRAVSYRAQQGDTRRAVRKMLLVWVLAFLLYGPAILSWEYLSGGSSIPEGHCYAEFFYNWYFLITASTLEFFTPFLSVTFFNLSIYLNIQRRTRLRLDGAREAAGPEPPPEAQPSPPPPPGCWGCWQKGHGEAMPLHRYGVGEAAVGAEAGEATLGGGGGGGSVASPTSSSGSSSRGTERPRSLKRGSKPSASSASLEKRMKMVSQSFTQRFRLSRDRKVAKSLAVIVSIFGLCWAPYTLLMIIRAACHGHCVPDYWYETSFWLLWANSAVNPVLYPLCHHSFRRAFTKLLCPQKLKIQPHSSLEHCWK
Experiment: Antagonist activity at human histamine H3 receptor by [35S]GTP-gamma-S assay
pKi: −log10 of the molar value.
Parameter pKi: see the listing below.
property.measured: pKi

>  <smiles.input>
O=C(c1cnc2ccccc2c1)N1CCC[C@H]1CN1CCCC1

>  <prefix.operator>
<

>  <assay.result>
6.82

$$$$
>  <smiles.input>
O=C(c1cnc2ccccc2c1)N1CCC[C@H]1CN1CCCCC1

>  <prefix.operator>
<

>  <assay.result>
6.82

$$$$
>  <smiles.input>
O=C(c1sc2ccccc2c1Cl)N1CCC[C@H]1CN1CCCC1

>  <prefix.operator>
=

>  <assay.result>
7.92

$$$$
>  <smiles.input>
O=C(c1cc2ccc(C(F)(F)F)cc2o1)N1CCC[C@H]1CN1CCCC1

>  <prefix.operator>
=

>  <assay.result>
7.82

$$$$
